Parameter 'readout' = pKi; parameter 'system' = 5-hydroxytryptamine receptor 2A (Homo sapiens, UniProt P28223).
Sequence (P28223 whole entry): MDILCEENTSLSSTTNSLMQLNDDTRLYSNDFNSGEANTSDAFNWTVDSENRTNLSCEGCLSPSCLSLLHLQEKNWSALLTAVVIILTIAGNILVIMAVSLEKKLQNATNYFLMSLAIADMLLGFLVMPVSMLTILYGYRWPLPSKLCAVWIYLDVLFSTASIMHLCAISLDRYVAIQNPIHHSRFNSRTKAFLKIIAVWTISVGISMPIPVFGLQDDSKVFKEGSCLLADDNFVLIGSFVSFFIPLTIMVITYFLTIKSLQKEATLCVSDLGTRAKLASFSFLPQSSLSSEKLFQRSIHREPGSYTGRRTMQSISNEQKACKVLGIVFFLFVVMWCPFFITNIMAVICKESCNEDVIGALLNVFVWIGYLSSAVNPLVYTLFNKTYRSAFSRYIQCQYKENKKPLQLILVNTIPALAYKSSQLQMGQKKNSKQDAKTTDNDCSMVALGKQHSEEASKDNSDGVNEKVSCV
Give bare numbers, as −log10 of the molar value.

[Q] What value of pKi has been recorded for this entry: CC(=O)c1c(OCCCCN2CCN(c3ccccc3C(F)(F)F)CC2)ccc2c(C)cc(=O)oc12
[A] 7.31

[Q] What value of pKi has been recorded for this entry: CC(=O)c1c(OCCCN2CCN(c3cccc(F)c3)CC2)ccc2c(C)cc(=O)oc12
[A] 6.39

[Q] What value of pKi has been recorded for this entry: CC(=O)c1c(OCCCN2CCN(c3cccc(Br)c3)CC2)ccc2c(C)cc(=O)oc12
[A] 8.22

[Q] What value of pKi has been recorded for this entry: CC(=O)c1c(OCCCN2CCN(c3ccccc3Br)CC2)ccc2c(C)cc(=O)oc12
[A] 8.15

[Q] What value of pKi has been recorded for this entry: CC(=O)c1c(OCCCCN2CCN(c3cc(C)ccc3C)CC2)ccc2c(C)cc(=O)oc12
[A] 7.33

Moving on to another compound below.
[Q] What value of pKi has been recorded for this entry: CC(=O)c1c(OCCCCN2CCN(c3ccccc3Cl)CC2)ccc2c(C)cc(=O)oc12
[A] 7.70

---

Parameter 'readout' = Ki; parameter 'system' = 5-hydroxytryptamine receptor 1A (Homo sapiens).
Sequence (P08908 whole entry): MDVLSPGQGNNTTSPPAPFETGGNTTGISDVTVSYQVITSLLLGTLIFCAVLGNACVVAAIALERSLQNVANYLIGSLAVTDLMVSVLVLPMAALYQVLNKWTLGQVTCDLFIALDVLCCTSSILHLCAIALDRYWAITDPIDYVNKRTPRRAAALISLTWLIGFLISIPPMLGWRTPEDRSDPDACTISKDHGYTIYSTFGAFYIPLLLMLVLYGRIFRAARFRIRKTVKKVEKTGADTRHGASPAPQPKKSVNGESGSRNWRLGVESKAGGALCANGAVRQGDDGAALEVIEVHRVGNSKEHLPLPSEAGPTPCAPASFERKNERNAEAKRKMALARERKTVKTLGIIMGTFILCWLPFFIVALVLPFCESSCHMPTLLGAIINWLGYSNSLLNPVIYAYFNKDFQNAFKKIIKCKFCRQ
One number for each entry, in nM.

The following molecules have reported results that may help.
[Q] What value of Ki has been recorded for this entry: CC(=O)c1c(OCCCCN2CCN(c3ccccc3Br)CC2)ccc2c(C)cc(=O)oc12
[A] 1.5

[Q] What value of Ki has been recorded for this entry: COc1ccccc1N1CCN(CCCCOc2ccc3c(C)cc(=O)oc3c2C(C)=O)CC1
[A] 1

[Q] What value of Ki has been recorded for this entry: CC(=O)c1c(OCCCCN2CCN(c3ccccc3Cl)CC2)ccc2c(C)cc(=O)oc12
[A] 0.9

[Q] What value of Ki has been recorded for this entry: CC(=O)c1c(OCCCCN2CCN(c3cc(C)ccc3C)CC2)ccc2c(C)cc(=O)oc12
[A] 5.4

[Q] What value of Ki has been recorded for this entry: CC(=O)c1c(OCCCCN2CCN(c3cccc(Br)c3)CC2)ccc2c(C)cc(=O)oc12
[A] 2.5

[Q] What value of Ki has been recorded for this entry: CC(=O)c1c(OCCCCN2CCN(c3ccccc3C(F)(F)F)CC2)ccc2c(C)cc(=O)oc12
[A] 11

[Q] What value of Ki has been recorded for this entry: CC(=O)c1c(OCCCN2CCN(c3cccc(Br)c3)CC2)ccc2c(C)cc(=O)oc12
[A] 3.5

[Q] What value of Ki has been recorded for this entry: CC(=O)c1c(OCCCCN2CCN(c3cc(C)cc(C)c3)CC2)ccc2c(C)cc(=O)oc12
[A] 3.7

Please go through the list and note Ki for each molecule.
1. CC(=O)c1c(OCCCN2CCN(c3ccccc3Br)CC2)ccc2c(C)cc(=O)oc12
2. CC(=O)c1c(OCCCCN2CCN(c3cccc(F)c3)CC2)ccc2c(C)cc(=O)oc12

[A]
1. 0.5
2. 50

---

# tested-system: 5-hydroxytryptamine receptor 1A (Rattus norvegicus)
# Sequence (P19327 whole entry): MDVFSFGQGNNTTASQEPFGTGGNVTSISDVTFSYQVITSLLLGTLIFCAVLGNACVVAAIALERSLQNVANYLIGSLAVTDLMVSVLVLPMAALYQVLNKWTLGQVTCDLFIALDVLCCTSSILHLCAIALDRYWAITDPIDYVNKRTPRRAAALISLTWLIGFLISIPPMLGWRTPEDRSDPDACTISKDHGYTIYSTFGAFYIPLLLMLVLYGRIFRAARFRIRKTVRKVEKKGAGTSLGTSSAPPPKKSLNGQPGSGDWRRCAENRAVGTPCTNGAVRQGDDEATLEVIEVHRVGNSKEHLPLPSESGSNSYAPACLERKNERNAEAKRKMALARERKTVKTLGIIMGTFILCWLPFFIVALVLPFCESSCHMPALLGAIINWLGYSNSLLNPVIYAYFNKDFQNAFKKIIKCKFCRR
# run-description: Agonist activity at 5-HT1A receptor in Sprague-Dawley rat hippocampal membranes after 90 mins by microbeta scintillation counting based [35S]GTPgammaS binding assay
# Type: functional
outcome-measure: pEC50
Numbers only, as −log10 of the molar value.

[Q] What value of pEC50 has been recorded for this entry: COc1ccccc1N1CCN(CCCOc2ccc3c(C)cc(=O)oc3c2C(C)=O)CC1
[A] 8.70

Next:
[Q] What value of pEC50 has been recorded for this entry: CC(=O)c1c(OCCCN2CCN(c3ccccc3Br)CC2)ccc2c(C)cc(=O)oc12
[A] 7.40
